log p values for the compounds below.
measurementProtocol: physchem
Format: physicochemical
statedConditions: pH 2.7
Marks after values point to notes of the source that are not given here.

Recorded results for 5 compounds are shown here.
>>> testresult("CCc1nc(-c2ccc(F)cc2)c(-c2ccnc(NC(=O)C3(C)CC3)c2)s1")
"3.89^[b]"
>>> testresult("CCc1nc(-c2ccc(F)cc2)c(-c2ccnc(C(=O)NC3CC3)c2)s1")
"3.46^[b]"
>>> testresult("CCc1nc(-c2ccc(F)cc2)c(-c2ccnc(NC(C)C)c2)s1")
"1.73^[b]"
>>> testresult("CCc1nc(-c2ccc(F)cc2)c(-c2ccnc(NC(C)CO)c2)s1 (stereo not drawn)")
"1.44^[b]"
>>> testresult("CCNc1cc(-c2sc(CC)nc2-c2ccc(F)cc2)ccn1")
"1.54^[b]"

Reported log p, compound CCc1nc(-c2ccc(F)cc2)c(-c2ccnc(NC(=O)CC(C)C)c2)s1 : ____
3.91^[b]

Reported log p, compound CCc1nc(-c2ccc(F)cc2)c(-c2ccnc(N(C(=O)OC(C)C)C(=O)OC(C)C)c2)s1 : ____
4.5^[b]

Reported log p, compound CCc1nc(-c2ccc(F)cc2)c(-c2ccnc(NC(=O)C3CCCCC3)c2)s1 : ____
4.54^[b]

Reported log p, compound CCc1nc(-c2ccc(F)cc2)c(-c2ccnc(N(C(C)=O)C(C)=O)c2)s1 : ____
2.95^[b]

Reported log p, compound CCc1nc(-c2cccc(C(F)(F)F)c2)c(-c2ccncc2)s1 : ____
3^[b]

---

measurementProtocol: physchem
Format: physicochemical
statedConditions: pH 7.8
measuredParameter: chromatographic logP
Reply briefly: the number, and no unit.

>>> testresult("CCc1nc(-c2ccc(F)cc2)c(-c2ccnc(N(C(C)=O)C3CC3)c2)s1")
2.88
>>> testresult("CCc1nc(-c2ccc(F)cc2)c(-c2ccnc(NC3CC3)c2)s1")
3.61
>>> testresult("CCc1nc(-c2ccc(F)cc2)c(-c2ccnc(Cl)c2)s1")
4.1
>>> testresult("Cc1cc(-c2sc(C(C)C)nc2-c2ccc(F)cc2)ccn1")
4.06

Reported chromatographic logP, compound CCc1nc(-c2ccc(F)cc2)c(-c2ccncc2)s1 : ____
2.89

---

log p values for the compounds below.
measurementProtocol: physchem
Format: physicochemical
statedConditions: pH 7.8

Recorded results for 2 compounds are shown here.
>>> testresult("CCc1nc(-c2ccc(F)cc2)c(-c2ccnc(N(C(=O)OC(C)C)C(=O)OC(C)C)c2)s1 [compound 93]")
"4.49^[c];"
>>> testresult("CC(C)c1nc(-c2ccc(F)cc2)c(-c2ccncc2)s1 [compound 43]")
"3.71^[c];"

Reported log p, compound CCc1nc(-c2ccc(F)cc2)c(-c2ccnc(NS(C)(=O)=O)c2)s1 [compound 91] : ____
2.18^[c];

Reported log p, compound C=C(C)C(=O)Nc1cc(-c2sc(CC)nc2-c2ccc(F)cc2)ccn1 [compound 90] : ____
3.71^[c];

Reported log p, compound Fc1ccc(-c2nc(C3CC3)sc2-c2ccncc2)cc1 [compound 89] : ____
3.32^[c];

Reported log p, compound CCc1nc(-c2ccc(F)cc2)c(-c2ccnc(NC(=O)C(C)C)c2)s1 [compound 82] : ____
3.66^[c];

Reported log p, compound CCOC(=O)Nc1cc(-c2sc(CC)nc2-c2ccc(F)cc2)ccn1 [compound 85] : ____
3.69^[c];

Reported log p, compound CCc1nc(-c2ccc(F)cc2)c(-c2ccnc(NC(=O)C3(C)CC3)c2)s1 [compound 95] : ____
4.03^[c];

Reported log p, compound CCc1nc(-c2ccc(F)cc2)c(-c2ccnc(NC(=O)CCl)c2)s1 [compound 98] : ____
3.32^[c];

---

measurementProtocol: physchem
Format: physicochemical
statedConditions: pH 2.7
measuredParameter: chromatographic logP
Reply briefly: the number, and no unit.

>>> testresult("CCc1nc(-c2ccc(F)cc2)c(-c2ccnc(N(C(C)=O)C3CC3)c2)s1 [Ex. 80]")
2.81

Reported chromatographic logP, molecule CCc1nc(-c2ccc(F)cc2)c(-c2ccnc(N)c2)s1 [Ex. 35] : ____
1.29

Reported chromatographic logP, molecule CCc1nc(-c2ccc(F)cc2)c(-c2ccnc(C)c2)s1 [Ex. 96] : ____
1.68

Reported chromatographic logP, molecule CCc1nc(-c2ccc(F)cc2)c(-c2ccnc(NCc3ccccc3)c2)s1 [Ex. 59] : ____
2.32

Reported chromatographic logP, molecule CCc1nc(-c2ccc(F)cc2)c(-c2ccnc(NC3CC3)c2)s1 [Ex. 72] : ____
1.74

Reported chromatographic logP, molecule CCc1nc(-c2ccc(F)cc2)c(-c2ccnc(Cl)c2)s1 [Ex. 58] : ____
4.07

Reported chromatographic logP, molecule O=C(c1ccc(Cl)s1)C(Br)c1ccncc1 (centres unmarked) : ____
2.18

Reported chromatographic logP, molecule Cc1cc(-c2sc(C(C)C)nc2-c2ccc(F)cc2)ccn1 [Ex. 100] : ____
2.1

---

log p values for the compounds below.
measurementProtocol: physchem
Type: physicochemical
statedConditions: pH 2.7
Marks after values point to notes of the source that are not given here.

>>> testresult("CCc1nc(-c2ccc(F)cc2)c(-c2ccnc(NC(=O)C(C)C)c2)s1")
"3.52^[b]"
>>> testresult("CCc1nc(-c2ccc(F)cc2)c(-c2ccnc(NC(=O)c3ccc(OC)cc3)c2)s1")
"4.04^[b]"
>>> testresult("CCc1nc(-c2ccc(F)cc2)c(-c2ccnc(NCC(C)OC)c2)s1 (centres unmarked)")
"1.73^[b]"
>>> testresult("CCc1nc(-c2ccc(F)cc2)c(-c2ccnc(N3CCCC3)c2)s1")
"2^[b]"
>>> testresult("CCc1nc(-c2ccc(F)cc2)c(-c2ccnc(NC(=O)COC)c2)s1")
"3.17^[b]"

Reported log p, compound CCc1nc(-c2cccs2)c(-c2ccncc2)s1 : ____
1.94^[b]

Reported log p, compound CCOC(=O)Nc1cc(-c2sc(CC)nc2-c2ccc(F)cc2)ccn1 : ____
3.61^[b]

Reported log p, compound CCCCc1nc(-c2ccc(F)cc2)c(-c2ccnc(NC(=O)c3ccccc3)c2)s1 : ____
5.07^[b]

---

measurementProtocol: physchem
Format: physicochemical
statedConditions: pH 7.8
log p values for the compounds below.

Recorded results for 8 compounds are shown here.
>>> testresult("CCc1nc(-c2ccc(F)cc2)c(-c2ccnc(NC(=O)OC)c2)s1")
"3.22^[c];"
>>> testresult("CCc1nc(-c2ccc(F)cc2)c(-c2ccnc(NCC(C)OC)c2)s1 (stereo not drawn)")
"3.67^[c];"
>>> testresult("CCc1nc(-c2ccc(F)cc2)c(-c2ccnc(NC(=O)CC(C)C)c2)s1")
"4.04^[c];"
>>> testresult("CCc1nc(-c2ccc(F)cc2)c(-c2ccnc(NCC(C)O)c2)s1 (stereo not drawn)")
"2.74^[c];"
>>> testresult("CCc1nc(-c2ccc(F)cc2)c(-c2ccnc(NC(=O)OC(C)C)c2)s1")
"4.18^[c];"
>>> testresult("Fc1ccc(-c2nc(C(F)F)sc2-c2ccncc2)cc1")
"3.01^[c];"
>>> testresult("CCc1nc(-c2ccc(F)cc2)c(-c2ccnc(N(C(C)=O)C(C)=O)c2)s1")
"2.95^[c];"
>>> testresult("CCCC(=O)Nc1cc(-c2sc(CC)nc2-c2ccc(F)cc2)ccn1")
"3.58^[c];"

For the next question, use this compound.
Reported log p, compound CCc1nc(-c2ccc(F)cc2)c(-c2ccnc(NC(=O)COC)c2)s1 : ____
3.21^[c];
